Assayed Target: T1, human PD-L1, full-length, on CHO cells (human, UniProt Q9NZQ7 19-290)
T1 construct: also called huPD-L1; CD274
T1 sequence (Q9NZQ7 19-290): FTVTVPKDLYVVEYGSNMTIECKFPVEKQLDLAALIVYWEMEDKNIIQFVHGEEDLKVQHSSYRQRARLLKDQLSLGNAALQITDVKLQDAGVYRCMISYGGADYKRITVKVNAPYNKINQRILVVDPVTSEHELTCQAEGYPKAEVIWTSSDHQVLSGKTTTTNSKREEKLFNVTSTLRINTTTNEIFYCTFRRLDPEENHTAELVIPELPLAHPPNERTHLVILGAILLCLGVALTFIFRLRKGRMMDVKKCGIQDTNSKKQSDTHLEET
Assay Remarks: flow cytometry, CHO/PD-L1 cells; MFI relative to WT CD80 ECD-Fc
Reported Fold change to WT CD80 is given for each of the following binders.
Outcome Measure: Fold change to WT CD80 (fold)

1. variant CD80 IgV-Fc M47L/V68M/L85Q (Fc fusion, not shown: small tags and cut ends; a dimerising Fc or GST) VIHVTKEVKEVATLSCGHNVSVEELAQTRIYWQKEKKMVLTMMSGDLNIWPEYKNRTIFDITNNLSIMILALRPSDEGTYECVVQKYEKDAFKREHLAEVTLSVKAD    31.6
2. variant CD80 IgV-Fc E35D/M47L/V68M/L85Q (Fc fusion, not shown: small tags and cut ends; a dimerising Fc or GST) VIHVTKEVKEVATLSCGHNVSVEELAQTRIYWQKDKKMVLTMMSGDLNIWPEYKNRTIFDITNNLSIMILALRPSDEGTYECVVQKYEKDAFKREHLAEVTLSVKAD    120

Source listed as patent US20210130436A1.
